# Tested On: UniProt P48775
# Sequence (P48775 whole entry): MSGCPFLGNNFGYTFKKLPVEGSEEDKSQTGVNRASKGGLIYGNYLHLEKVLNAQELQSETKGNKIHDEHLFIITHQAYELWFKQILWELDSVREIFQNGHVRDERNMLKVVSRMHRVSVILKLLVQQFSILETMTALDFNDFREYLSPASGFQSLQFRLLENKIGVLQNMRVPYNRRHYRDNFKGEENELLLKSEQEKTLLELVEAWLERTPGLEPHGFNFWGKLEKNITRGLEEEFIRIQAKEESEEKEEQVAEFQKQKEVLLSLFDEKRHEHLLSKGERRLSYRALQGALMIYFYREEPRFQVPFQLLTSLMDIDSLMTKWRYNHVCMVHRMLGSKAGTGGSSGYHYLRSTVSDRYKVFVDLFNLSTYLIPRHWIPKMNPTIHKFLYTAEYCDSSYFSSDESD
# Assay Method Text: Cellular assay for TDO2 activity, hTDO2-overexpressing P815 cells
# Type: cell-based
# Condition Context: murine mastocytoma P815 cells overexpressing hTDO2, overnight incubation, kynurenine in supernatant
pIC50: −log10 of the molar value.
Readout Kind: pIC50

- NCCS(=O)(=O)NC1CCN(c2ccc(-c3c[nH]c4cc(F)ccc34)cn2)CC1: 6.54
- Cc1cncc(-c2c[nH]c3cc(F)ccc23)c1: 6.21
- NCC(=O)NCCNc1ccc(-c2c[nH]c3cc(F)ccc23)cn1: 6.07
- CN(C)CCOc1ccc(-c2c[nH]c3cc(F)ccc23)cn1: 6.17
- O=C(O)CNc1ccc(-c2c[nH]c3cc(F)ccc23)cn1: 5.82
- Fc1cc2[nH]cc(-c3cccnc3)c2cc1F: 6.62
- Cc1ccc(-c2c[nH]c3cc(F)ccc23)cn1: 6.74
- CS(=O)(=O)N1CCC(C(=O)Nc2ccc(-c3c[nH]c4cc(F)ccc34)cn2)CC1: 6.77
- CN(c1ccc(-c2c[nH]c3cc(F)ccc23)cn1)S(C)(=O)=O: 6.80

The reported measurements were obtained from patent US9758505B2.
